pEC50: recorded values
- system under test: hPPARγ (Homo sapiens, UniProt P37231)
- Sequence (P37231 whole entry): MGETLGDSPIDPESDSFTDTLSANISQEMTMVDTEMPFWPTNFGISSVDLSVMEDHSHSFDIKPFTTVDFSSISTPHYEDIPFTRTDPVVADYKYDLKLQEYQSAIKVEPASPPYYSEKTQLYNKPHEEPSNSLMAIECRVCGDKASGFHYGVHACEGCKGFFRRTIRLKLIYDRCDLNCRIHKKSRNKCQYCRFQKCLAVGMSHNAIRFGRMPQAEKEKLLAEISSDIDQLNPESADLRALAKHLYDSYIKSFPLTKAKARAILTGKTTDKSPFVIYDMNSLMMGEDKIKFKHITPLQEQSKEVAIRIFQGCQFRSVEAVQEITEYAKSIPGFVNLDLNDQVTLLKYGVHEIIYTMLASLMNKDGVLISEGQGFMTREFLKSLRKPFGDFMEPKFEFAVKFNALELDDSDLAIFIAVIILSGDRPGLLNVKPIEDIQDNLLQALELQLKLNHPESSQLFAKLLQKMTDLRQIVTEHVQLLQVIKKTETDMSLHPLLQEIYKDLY
- protocol description: PPAR transfection (luciferase reporter) assay in COS cells, hPPARγ
- condition label: agonist activity, transiently transfected COS cells, 16 hours incubation; read-out: hPPAR; EC50 γ
pEC50: −log10 of the molar value.

Q: Give recorded pEC50 with hPPARγ (Homo sapiens, UniProt P37231) for the following compound: CC(C)(Oc1ccc(CN(Cc2ccccc2[N+](=O)[O-])c2nc3ccccc3o2)cc1)C(=O)O
Result: < 5.00

Q: Give recorded pEC50 with hPPARγ (Homo sapiens, UniProt P37231) for the following compound: CC(C)(Oc1cccc(CN(Cc2cccc3ccccc23)c2nc3ccccc3o2)c1)C(=O)O
Result: < 5.00

Q: Give recorded pEC50 with hPPARγ (Homo sapiens, UniProt P37231) for the following compound: CCCN(Cc1cccc(OC(C)C(=O)O)c1)c1nc2ccccc2o1 (stereo not drawn)
Result: < 5.00
